Each record here notes measured RLU.
Molecular target: mouse Tas2r108 (Mus musculus, UniProt Q9JKT3)
Construct: expressed in transfected cells; host or cells: HEK293T-Gα16gust44
Sequence (Q9JKT3 whole entry): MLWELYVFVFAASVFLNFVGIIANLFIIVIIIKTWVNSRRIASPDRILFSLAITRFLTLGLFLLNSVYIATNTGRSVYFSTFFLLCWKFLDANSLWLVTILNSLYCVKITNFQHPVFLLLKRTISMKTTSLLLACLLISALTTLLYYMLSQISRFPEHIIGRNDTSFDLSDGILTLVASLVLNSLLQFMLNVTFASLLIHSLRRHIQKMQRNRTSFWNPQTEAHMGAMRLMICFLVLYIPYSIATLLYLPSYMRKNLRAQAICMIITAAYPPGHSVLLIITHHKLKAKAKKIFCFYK
Assay: Calcium imaging assay (FLIPR), HEK293T-Gα16gust44 cells transfected with mouse Tas2r108
Type: cell-based
Settings: Time 359.562 s
Report the figure in RLU without appending any unit label.

C[C@H](CCC(=O)O)[C@H]1CC[C@H]2[C@@H]3CC[C@@H]4C[C@H](O)CC[C@]4(C)[C@H]3C[C@H](O)[C@]12C = 399.693
C[C@H](CCC(=O)NCCS(=O)(=O)O)[C@H]1CC[C@H]2[C@@H]3[C@H](O)C[C@@H]4C[C@H](O)CC[C@]4(C)[C@H]3C[C@H](O)[C@]12C = 275.281
C[C@H](CCC(=O)NCC(=O)O)[C@H]1CC[C@H]2[C@@H]3[C@H](O)C[C@@H]4C[C@H](O)CC[C@]4(C)[C@H]3C[C@H](O)[C@]12C = 154.549

Consider the additional compound presented here.
Dear colleague, I am looking for the recorded RLU of the following compound: `C[C@H](CCC(=O)O)[C@H]1CC[C@H]2[C@@H]3[C@H](O)C[C@@H]4C[C@H](O)CC[C@]4(C)[C@H]3C[C@H](O)[C@]12C` 176.226
